- Assayed target: HLA-A*31:01
- Measurement description: IEDB peptide-MHC binding, purified MHC/competitive/radioactivity; filed as Kd, often an IC50 or EC50 that approximates it; bounds were set here for any values at or beyond the usual limits of such assays
- Condition summary: source organism: SARS coronavirus Tor2
Ranges used to classify Kd: Low = under 50 nM, Mid = from 50 nM up to 200 nM, High = 200 nM and over

Request: For the record `TVWEVQGYK` , report the class its Kd corresponds to.
Response: Low

Request: Could you do the same for `MVMCGGSLY` , please?
Response: Mid

Request: Thanks! And `AAMQRKLEK` ?
Response: High

Request: Also need `LQFAYSNRNR` , thanks.
Response: Low

Request: What do you get for `SVYAWERKK` ?
Response: High

Request: Now the sequence `ALCEKALKY`
Response: High

Request: Record: `VSLLRSTSQK`
Response: Mid

Request: And the next one, `IQVTISSYK` ?
Response: Mid

Request: Next up: `AMDEFIQRYK`
Response: High

Request: Same read-out for `DLPSGFNTLK` ?
Response: High

Request: Similarly, `AQCFKMFYK` ?
Response: Low

Request: What do you have for `VTLADAGFMK` ?
Response: High
